# System Tested: human FPR1 (Homo sapiens, UniProt P21462)
# Sequence (P21462 whole entry): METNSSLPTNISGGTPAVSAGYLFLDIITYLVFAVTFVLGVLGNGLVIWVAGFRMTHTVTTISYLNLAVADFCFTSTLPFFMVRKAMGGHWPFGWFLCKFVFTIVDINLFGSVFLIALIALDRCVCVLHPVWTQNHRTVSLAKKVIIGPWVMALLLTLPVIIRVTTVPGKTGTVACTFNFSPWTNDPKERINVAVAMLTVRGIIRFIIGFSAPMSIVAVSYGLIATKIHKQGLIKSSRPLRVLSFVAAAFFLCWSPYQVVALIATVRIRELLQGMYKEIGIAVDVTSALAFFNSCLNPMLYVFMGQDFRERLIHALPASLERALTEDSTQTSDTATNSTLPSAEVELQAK
# Method Description: FPR1 cyclic adenosine monophosphate (cAMP) assay
# Test Parameters: CHO cells overexpressing human FPR1; inhibition of forskolin-stimulated cAMP production; read-out: hFPR1 cAMP EC50
Property Measured: EC50

# annotated cases, reported EC50 shown
                               smiles_input  test_result
0  COc1cc(F)c([C@@H]2CNC(=O)[C@H]2NC(=O)NC2(c3cccc(OCc4ccc5ccccc5c4)c3)CC2)c(F)c1      1000 nM
1  COc1cc(F)c([C@@H]2CNC(=O)[C@H]2NC(=O)NC2(c3ccc4ccccc4n3)CC2)c(F)c1       320 nM
2  COc1cc(F)c([C@@H]2CN(C)C(=O)[C@H]2NC(=O)NC2(c3ccc4ccccc4n3)CC2)c(F)c1        66 nM
3  COc1cc(F)c([C@@H]2CNC(=O)[C@H]2NC(=O)NC2(c3cccc(C(F)(F)F)c3)CC2)c(F)c1      2300 nM

We next turn to a different molecule, shown below.
# assay system human FPR1 (Homo sapiens, UniProt P21462): give EC50 of COc1ccc([C@@H]2CNC(=O)[C@H]2NC(=O)NC2(c3cccc(Cl)n3)CC2)c(F)c1
140 nM
